FYI, the data here is from ChEMBL document CHEMBL3885861.

Organism: Rattus norvegicus
measurement-description: Open TG-GATES - Regimen: Single
Assay type: toxicity, organism-based, Sprague-Dawley
Design: regimen Single, gender Male, age 6 weeks
conditions: in vivo, po, 10 mg/kg, 24 h, tissue Plasma, route gavage, dose level Low
measured-property: DBIL (mg/dL)
Answer with a number only, understood to be in mg/dL.

{"columns": ["molecule", "reported"],
 "data": [
  ["CC(C)OC(=O)C(C)(C)Oc1ccc(C(=O)c2ccc(Cl)cc2)cc1 [FENOFIBRATE]", 0.012],
  ["CC1=C(/C=C/C(C)=C/C=C/C(C)=C/CO)C(C)(C)CCC1 [RETINOL]", 0.002]
]}

Entry CN(C)CCN(Cc1cccs1)c1ccccn1 ; DBIL = 0.002

Lookup result for CN(C)CCCN1c2ccccc2CCc2ccc(Cl)cc21 [CLOMIPRAMINE] ; measured DBIL: 0.012
